system: phospho-ERK in Panc1 (G12D); assay: In-Cell Western phospho-ERK, Panc1; type: cell-based; conditions: Homo sapiens, PANC-1, 1 h; Panc1, one hour treatment; read-out: In-Cell Western Panc1 (G12D) Erk (P)
Assign pEC50 to each entry below.
Give bare numbers, as −log10 of the molar value.

COCCN1C(=O)CCc2cc(-c3csc(NC(=O)c4c(C)nn(C)c4C)n3)ccc21 :: 5.30
Cc1nn(C(C)C)c(C)c1C(=O)Nc1nc(-c2ccc3c(c2)CCC(=O)N3Cc2cccnc2)cs1 :: 5.40
Cc1nc(C2CCOC2O)sc1C(=O)Nc1nc(-c2ccc3c(c2)CCC(=O)N3Cc2cccnc2)cs1 (stereo not shown) :: 4.60
CCc1nc(C)c(C(=O)Nc2nc(-c3ccc4c(c3)CCC(=O)N4C(C)c3cccnc3)cs2)o1 (stereo not shown) :: 5.10

Below is a list of compounds. For each, state its recorded pEC50.
1. COc1cccc(CN2C(=O)CCc3cc(-c4csc(NC(=O)c5oc(C)nc5C)n4)ccc32)c1OC
2. COC(=O)CCN1C(=O)CCc2cc(-c3csc(NC(=O)c4oc(C)nc4C)n3)ccc21

Response:
1: 5.10; 2: 4.85

Report pEC50 for each item below.
1. Cc1nn(C(C)C)c(C)c1C(=O)Nc1nc(-c2ccc3c(c2)CCC(=O)N3)cs1
2. Cc1nn(-c2ccccc2)c(C)c1C(=O)Nc1nc(-c2ccc3c(c2)CCC(=O)N3)cs1
3. COCCN1C(=O)CCc2cc(-c3csc(NC(=O)c4c(C)nn(C(C)C)c4C)n3)ccc21
4. Cc1nn(Cc2ccccc2)c(C)c1C(=O)Nc1nc(-c2ccc3c(c2)CCC(=O)N3)cs1

Response:
1. 5.10
2. 4.80
3. 5.22
4. 5.52

Ref: patent US10344026B2
